assay: molar heat capacity at constant pressure; conditions: 353.15 K; 101.33 kPa; Liquid
assay endpoint: molar heat capacity at constant pressure (J/K/mol)

[[record]]
molecule = "CCCCO"
reported_measurement = 222.54

[[record]]
molecule = "CC(O)C(C)O (stereo not given)"
reported_measurement = 262.67

[[record]]
molecule = "OCCCCO"
reported_measurement = 237.07

[[record]]
molecule = "CC(O)CC(C)(C)O (stereo not given)"
reported_measurement = 313.68

[[record]]
molecule = "CCC(O)CO (stereo not given)"
reported_measurement = 258.5


----------
experiment: molar heat capacity at constant pressure; details: 343.15 K; 101.33 kPa; Liquid
assay endpoint: molar heat capacity at constant pressure (J/K/mol)

[[record]]
compound = "CC(O)C(C)O (stereo not given)"
reported_measurement = 258.39

[[record]]
compound = "CC(O)CC(C)(C)O (stereo not given)"
reported_measurement = 303.35

[[record]]
compound = "CCCCO"
reported_measurement = 213.57

[[record]]
compound = "CCC(O)CO (stereo not given)"
reported_measurement = 254

[[record]]
compound = "OCCCCO"
reported_measurement = 230.4

